assay-notes: Stability in dog microsomes measured after 1 hr
Assay type: ADME, Canis lupus familiaris, Microsome
test-settings: read-out: Stability
endpoint: remaining at 1 h (%)
Kindly answer with a numeric value in %, unit omitted.

Enquiry: Quick one: remaining at 1 h of Cl.NC/C(=C\F)[C@H]1Cc2ccccc2O1 ?
Return: 92

----------
tested-on: Cytochrome P450 3A4 (Homo sapiens, UniProt P08684)
Sequence (P08684 whole entry): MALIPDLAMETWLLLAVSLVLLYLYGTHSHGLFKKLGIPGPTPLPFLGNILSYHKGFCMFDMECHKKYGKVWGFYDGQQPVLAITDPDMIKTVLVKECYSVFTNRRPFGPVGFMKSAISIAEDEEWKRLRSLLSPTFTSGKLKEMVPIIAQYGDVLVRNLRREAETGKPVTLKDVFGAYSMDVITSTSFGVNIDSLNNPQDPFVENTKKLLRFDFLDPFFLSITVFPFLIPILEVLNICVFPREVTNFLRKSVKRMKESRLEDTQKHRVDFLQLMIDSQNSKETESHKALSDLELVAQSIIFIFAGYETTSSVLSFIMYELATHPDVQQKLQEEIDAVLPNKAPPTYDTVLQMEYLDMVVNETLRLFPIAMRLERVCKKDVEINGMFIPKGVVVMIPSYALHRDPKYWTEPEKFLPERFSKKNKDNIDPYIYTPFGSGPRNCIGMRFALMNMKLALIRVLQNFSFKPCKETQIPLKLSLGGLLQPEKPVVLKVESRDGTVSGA
endpoint: IC50

Enquiry: # IC50 lookup, item Cl.NC/C(=C\F)[C@H]1Cc2ccccc2O1
Return: > 10 µM

----------
tested-on: Lysyl oxidase homolog 2 (Homo sapiens)
Sequence (Q9Y4K0 whole entry): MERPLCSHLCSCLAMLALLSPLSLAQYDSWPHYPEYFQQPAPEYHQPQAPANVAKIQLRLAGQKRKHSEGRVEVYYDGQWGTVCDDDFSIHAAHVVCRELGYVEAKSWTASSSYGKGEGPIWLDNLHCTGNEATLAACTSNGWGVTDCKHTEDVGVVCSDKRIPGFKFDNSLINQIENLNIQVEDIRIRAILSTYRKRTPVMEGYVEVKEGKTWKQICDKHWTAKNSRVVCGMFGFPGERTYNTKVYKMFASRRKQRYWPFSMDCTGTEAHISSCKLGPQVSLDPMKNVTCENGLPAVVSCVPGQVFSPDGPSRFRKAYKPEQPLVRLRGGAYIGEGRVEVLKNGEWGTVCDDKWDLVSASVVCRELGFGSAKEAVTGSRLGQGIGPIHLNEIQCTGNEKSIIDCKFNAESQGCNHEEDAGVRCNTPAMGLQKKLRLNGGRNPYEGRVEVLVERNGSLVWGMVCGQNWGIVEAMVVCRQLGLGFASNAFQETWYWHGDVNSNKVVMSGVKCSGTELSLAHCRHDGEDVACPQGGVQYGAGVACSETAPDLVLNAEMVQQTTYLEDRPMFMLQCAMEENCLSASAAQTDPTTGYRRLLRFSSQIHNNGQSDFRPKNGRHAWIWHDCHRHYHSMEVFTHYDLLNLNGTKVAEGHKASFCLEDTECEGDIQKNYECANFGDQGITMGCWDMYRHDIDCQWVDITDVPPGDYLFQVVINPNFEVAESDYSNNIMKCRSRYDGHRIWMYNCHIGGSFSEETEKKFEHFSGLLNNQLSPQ
assay-notes: Inhibition of recombinant human LOXL-2
pIC50: −log10 of the molar value.
endpoint: pIC50

Enquiry: # query: pIC50 of entry Cl.NC/C(=C\F)[C@H]1Cc2ccccc2O1
Return: < 4.52

----------
assay-notes: Tmax in Wistar rat at 3 mg/kg, po
Assay type: ADME, organism-based
test-settings: in vivo
endpoint: Tmax (min)
Form entry: value (min) — number only.

Enquiry: Quick one: Tmax for Cl.NC/C(=C\F)[C@H]1Cc2ccccc2O1 ?
Return: 20

----------
assay-notes: Plasma protein binding in rat
Assay type: ADME, cell-free
test-settings: read-out: PPB (converted)
endpoint: fraction unbound
Returns: the value as a bare number; no unit string appended.

Enquiry: Could you share which fraction unbound value was measured for Cl.NC/C(=C\F)[C@H]1Cc2ccccc2O1 ?
Return: 0.51

----------
tested-on: UniProt:P27338
Sequence (P27338 whole entry): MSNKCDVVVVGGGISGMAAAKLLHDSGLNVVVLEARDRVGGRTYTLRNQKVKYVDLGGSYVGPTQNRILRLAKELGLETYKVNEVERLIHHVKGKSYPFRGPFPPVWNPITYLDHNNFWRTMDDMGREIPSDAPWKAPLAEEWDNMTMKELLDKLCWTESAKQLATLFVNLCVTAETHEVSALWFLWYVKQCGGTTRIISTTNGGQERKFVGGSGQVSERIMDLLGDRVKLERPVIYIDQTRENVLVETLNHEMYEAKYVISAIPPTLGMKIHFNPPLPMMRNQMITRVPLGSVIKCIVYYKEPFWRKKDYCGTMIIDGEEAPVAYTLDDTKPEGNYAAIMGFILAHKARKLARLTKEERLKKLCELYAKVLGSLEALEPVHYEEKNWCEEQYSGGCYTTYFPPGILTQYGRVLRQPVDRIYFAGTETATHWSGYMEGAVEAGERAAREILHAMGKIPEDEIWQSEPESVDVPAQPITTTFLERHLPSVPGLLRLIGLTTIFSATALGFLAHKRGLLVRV
assay-notes: Inhibition of human recombinant MAO-B
endpoint: IC50 (nM)
Enter your answer as a number in nM; do not include the unit.

See these solved cases before continuing.
INSERT INTO measurements (compound, tested_on, readout_units, value_observed) VALUES
  ('NCC(=CF)COc1ccccc1 (mixture of isomers)', 'UniProt:P27338', 'nM', 9),
  ('NC/C(=C\F)COc1ccccc1', 'UniProt:P27338', 'nM', 13),
  ('NCC(=CF)COc1ccc(F)cc1 (mixture of isomers)', 'UniProt:P27338', 'nM', 4),
  ('Cc1ccccc1OC/C(=C/F)CN', 'UniProt:P27338', 'nM', 3);

--- query ---
Enquiry: Quick check: IC50 on UniProt:P27338, item NC/C(=C/F)CCc1ccc(F)cc1 [MOFEGILINE] ?
Return: 2

----------
tested-on: Amine oxidase [flavin-containing] A (Homo sapiens, UniProt P21397)
Sequence (P21397 whole entry): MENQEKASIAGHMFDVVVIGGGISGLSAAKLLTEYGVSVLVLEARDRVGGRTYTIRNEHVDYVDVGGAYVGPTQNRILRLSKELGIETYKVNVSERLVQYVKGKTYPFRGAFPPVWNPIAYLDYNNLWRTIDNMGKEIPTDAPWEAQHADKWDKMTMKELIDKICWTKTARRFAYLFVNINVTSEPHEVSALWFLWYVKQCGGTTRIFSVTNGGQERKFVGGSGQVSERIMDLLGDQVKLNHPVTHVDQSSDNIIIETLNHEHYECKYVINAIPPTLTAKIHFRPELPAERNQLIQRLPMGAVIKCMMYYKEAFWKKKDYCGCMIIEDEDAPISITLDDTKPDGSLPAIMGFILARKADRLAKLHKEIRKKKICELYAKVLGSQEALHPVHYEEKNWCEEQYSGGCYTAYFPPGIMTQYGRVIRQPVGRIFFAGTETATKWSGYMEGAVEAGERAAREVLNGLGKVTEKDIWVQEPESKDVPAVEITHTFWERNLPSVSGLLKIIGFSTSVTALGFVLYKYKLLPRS
assay-notes: Inhibition of human recombinant MAO-A
Each record here notes measured IC50.
Report the figure in nM without appending any unit label.

These recorded examples may help you get a feel for the data.
INSERT INTO results (compound, tested_on, endpoint, value_observed) VALUES
  ('Cl.NC/C(=C\F)[C@H]1Cc2ccccc2O1', 'Amine oxidase [flavin-containing] A (Homo sapiens, UniProt P21397)', 'IC50', 2400),
  ('Cl.NC/C(=C\F)[C@@H]1Cc2ccccc2O1', 'Amine oxidase [flavin-containing] A (Homo sapiens, UniProt P21397)', 'IC50', 750),
  ('NC/C(=C/F)[C@@H]1Cc2ccccc2O1', 'Amine oxidase [flavin-containing] A (Homo sapiens, UniProt P21397)', 'IC50', 100),
  ('NC/C(=C/F)CCc1ccc(F)cc1 [MOFEGILINE]', 'Amine oxidase [flavin-containing] A (Homo sapiens, UniProt P21397)', 'IC50', 750);

Enquiry: Fill in: IC50 of NC/C(=C\F)COc1ccccc1 is ___
Return: 4000

Enquiry: Can you check NC/C(=C/F)[C@H]1Cc2ccccc2O1 next?
Return: 6800

Enquiry: Here is the next compound: NCC(=CF)COc1ccccc1 (mixture of isomers)
Return: 2500

Enquiry: Param item: Cl.NCC(=CF)C1Cc2ccccc2O1 (mixture of isomers)
Return: 460

Enquiry: // next record Cc1ccccc1OC/C(=C/F)CN
Return: 160

Enquiry: Again, but for NCC(=CF)COc1ccc(F)cc1 (mixture of isomers)
Return: 14000
